system: MCF7; experiment: cells; assay type: functional, cell-based; details: Homo sapiens, MCF7, 48 h
Description: Antiproliferative activity against human MCF7 cells assessed as inhibition of cell proliferation measured after 48 hrs by MTT assay
resultType: IC50 (µM)
Kindly answer with a numeric value in µM, unit omitted.

Suppose we examine the compound `NS(=O)(=O)c1ccc(NC(=O)N/C=C/C=C/c2ccc3c(c2)OCO3)cc1` ; what IC50 value has been reported? 2.17

* * *

Recorded Ki, one value per entry.
biological target: Carbonic anhydrase 12 (Homo sapiens, UniProt O43570)
Sequence (O43570 whole entry): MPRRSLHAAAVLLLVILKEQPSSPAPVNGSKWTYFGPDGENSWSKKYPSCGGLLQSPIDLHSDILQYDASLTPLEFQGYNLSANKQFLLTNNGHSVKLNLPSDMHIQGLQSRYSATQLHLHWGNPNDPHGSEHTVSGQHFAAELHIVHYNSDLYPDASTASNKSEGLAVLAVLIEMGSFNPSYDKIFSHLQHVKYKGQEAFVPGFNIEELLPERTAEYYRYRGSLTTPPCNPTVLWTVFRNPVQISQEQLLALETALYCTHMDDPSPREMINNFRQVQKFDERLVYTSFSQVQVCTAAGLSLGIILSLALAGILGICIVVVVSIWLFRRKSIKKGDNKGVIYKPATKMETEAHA

| structureAsSmiles | studyTarget | Ki |
| --- | --- | --- |
| CC(=O)c1ccc(NC(=O)N/C=C/C=C/c2ccc3c(c2)OCO3)cc1 | Carbonic anhydrase 12 (Homo sapiens, UniProt O43570) | > 100 µM |
| COC(=O)c1ccc(NC(=O)N/C=C/C=C/c2ccc3c(c2)OCO3)cc1 | Carbonic anhydrase 12 (Homo sapiens, UniProt O43570) | > 100 µM |

Pending compound:
Suppose we examine the compound `O=C(N/C=C/C=C/c1ccc2c(c1)OCO2)Nc1ccc(S(=O)(=O)Nc2nccs2)cc1` ; what Ki value has been reported? > 100 µM
